Molecular target: mouse FAP (Mus musculus, UniProt P97321)
Sequence (P97321 26-761): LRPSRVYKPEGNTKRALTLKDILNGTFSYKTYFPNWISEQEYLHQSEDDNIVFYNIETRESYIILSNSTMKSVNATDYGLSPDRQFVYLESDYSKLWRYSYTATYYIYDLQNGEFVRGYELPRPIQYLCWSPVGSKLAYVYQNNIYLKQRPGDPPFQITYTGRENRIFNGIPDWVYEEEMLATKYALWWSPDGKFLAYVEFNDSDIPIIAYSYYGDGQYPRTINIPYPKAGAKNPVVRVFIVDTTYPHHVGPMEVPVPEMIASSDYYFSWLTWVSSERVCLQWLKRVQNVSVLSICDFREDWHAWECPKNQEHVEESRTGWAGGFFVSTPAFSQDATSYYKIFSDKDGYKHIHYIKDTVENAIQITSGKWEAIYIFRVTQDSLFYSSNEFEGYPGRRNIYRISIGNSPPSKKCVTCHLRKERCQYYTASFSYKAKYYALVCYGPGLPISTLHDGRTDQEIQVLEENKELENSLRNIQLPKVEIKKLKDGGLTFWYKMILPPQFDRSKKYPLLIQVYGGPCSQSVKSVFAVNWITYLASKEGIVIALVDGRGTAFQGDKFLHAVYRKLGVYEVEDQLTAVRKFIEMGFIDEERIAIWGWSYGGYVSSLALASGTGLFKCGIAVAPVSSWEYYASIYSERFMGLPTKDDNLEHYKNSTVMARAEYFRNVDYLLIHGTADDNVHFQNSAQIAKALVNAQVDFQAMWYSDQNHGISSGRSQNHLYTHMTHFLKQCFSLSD
Starred links: 1 amine or outer side, 2 acyl side, 3 side chain; linkers in the order of their positions; H or OH if unused. Non-standard residues stand in square brackets, D forms with d. Residues, ends and D or L forms follow the SMILES beside them. Groups on a side chain read outwards from the residue. *: point of attachment. Phe(4-CH2NH2) = NCc1ccc(C[C@H](N)C(=O)O)cc1; Piperazinyl(4-CH2COOH) = O=C(O)CN1CCN(*)CC1; Nicotinoyl(6-F) = O=C(c1ccc(F)nc1)*; NMeF = CN[C@@H](Cc1ccccc1)C(=O)O; Aoc(2) = CCCCCC[C@H](N)C(=O)O; AEEA = NCCOCCOCC(=O)O; CO = O=C([*:1])[*:2]
reported-endpoint: pIC50
Note: pIC50 values are expressed as the negative base-10 logarithm of concentration in M.

Form: item CCCCCC[C@@H]1NC(=O)[C@H](Cc2ccc(CNC(=O)COCCOCCNC(=O)c3ccc(F)nc3)cc2)NC(=O)[C@H](Cc2ccccc2)N(C)C(=O)CNC(=O)CNC(=O)[C@H]2CCCN2C(=O)[C@H](CC(=O)O)NC(=O)[C@H](CCCCNC(=O)N2CCN(CC(=O)O)CC2)NC(=O)CNC(=O)[C@H](Cc2c[nH]c3ccccc23)NC1=O [Example C55] (cyclo([Aoc(2)]WGK([CO-Piperazinyl(4-CH2COOH)])D[dP]GG[NMeF][Phe(4-CH2NH2)]([AEEA-Nicotinoyl(6-F)]))) ; test system mouse FAP (Mus musculus, UniProt P97321); pIC50: 10.66

###

Biological target: human FAP (Homo sapiens, UniProt Q12884)
Sequence (Q12884 26-760): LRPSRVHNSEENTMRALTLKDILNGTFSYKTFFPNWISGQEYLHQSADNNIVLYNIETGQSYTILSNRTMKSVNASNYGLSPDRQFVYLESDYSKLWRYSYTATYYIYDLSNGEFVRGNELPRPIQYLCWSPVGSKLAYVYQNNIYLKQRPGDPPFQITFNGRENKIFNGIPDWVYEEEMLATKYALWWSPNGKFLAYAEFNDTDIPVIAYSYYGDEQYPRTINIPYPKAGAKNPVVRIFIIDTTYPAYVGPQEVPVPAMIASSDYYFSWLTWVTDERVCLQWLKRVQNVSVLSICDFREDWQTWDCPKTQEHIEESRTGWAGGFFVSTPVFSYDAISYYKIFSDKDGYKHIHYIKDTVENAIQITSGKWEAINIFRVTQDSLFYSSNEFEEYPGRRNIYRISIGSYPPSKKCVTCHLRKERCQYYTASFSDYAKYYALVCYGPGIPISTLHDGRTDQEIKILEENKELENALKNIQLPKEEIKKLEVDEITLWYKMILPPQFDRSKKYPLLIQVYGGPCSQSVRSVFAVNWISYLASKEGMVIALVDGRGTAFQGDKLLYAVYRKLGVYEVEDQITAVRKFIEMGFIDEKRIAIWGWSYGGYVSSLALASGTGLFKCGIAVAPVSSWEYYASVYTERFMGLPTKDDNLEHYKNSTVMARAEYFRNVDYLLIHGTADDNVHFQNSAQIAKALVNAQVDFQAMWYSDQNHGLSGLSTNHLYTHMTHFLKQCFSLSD
Counter-ions that a name gives are not always drawn. Starred links: 1 amine or outer side, 2 acyl side, 3 side chain; linkers in the order of their positions; H or OH if unused. Non-standard residues stand in square brackets, D forms with d. Residues, ends and D or L forms follow the SMILES beside them. Groups on a side chain read outwards from the residue. *: point of attachment. DOTA = O=C(O)CN1CCN(CC(=O)O)CCN(CC(=O)*)CCN(CC(=O)O)CC1; Trp(7-OMe) = COc1cccc2c(C[C@H](N)C(=O)O)c[nH]c12; Phe(4-CH2NH2) = NCc1ccc(C[C@H](N)C(=O)O)cc1; Piperazinyl(4-CH2COOH) = O=C(O)CN1CCN(*)CC1; 3Pal(6-NH2) = Nc1ccc(C[C@H](N)C(=O)O)cn1; NMeAla(cPent) = CN[C@@H](CC1CCCC1)C(=O)O; AEF = NCCOc1ccc(C[C@H](N)C(=O)O)cc1; Nicotinoyl(6-F) = O=C(c1ccc(F)nc1)*; NMeF = CN[C@@H](Cc1ccccc1)C(=O)O; Ahp(2) = CCCCC[C@H](N)C(=O)O; hSer = N[C@@H](CCO)C(=O)O; Orn = NCCC[C@H](N)C(=O)O; Dab = NCC[C@H](N)C(=O)O; AEEA = NCCOCCOCC(=O)O; CO = O=C([*:1])[*:2]; Sar = CNCC(=O)O; Propyl = CCC*
reported-endpoint: pIC50
As a rule, pIC50 stands for the negative log10 of the concentration, concentration in M.

Use the examples below as a reference point.
molecule	pIC50
CCCCC[C@@H]1NC(=O)[C@H](Cc2ccc(OCCN)cc2)NC(=O)[C@H](Cc2ccccc2)N(C)C(=O)CNC(=O)CNC(=O)[C@H]2CCCN2C(=O)[C@H](CC(=O)O)NC(=O)[C@H](Cc2ccc(N)nc2)NC(=O)CNC(=O)[C@H](Cc2c[nH]c3ccccc23)NC1=O [Example A45, TFA salt] (cyclo([AEF][Ahp(2)]WG[3Pal(6-NH2)]D[dP]GG[NMeF]))	9.72
CCCCC[C@@H]1NC(=O)[C@H](Cc2ccc(O)cc2)NC(=O)[C@H](CC2CCCC2)N(C)C(=O)CNC(=O)[C@H](CCCCN)NC(=O)[C@H]2CCCN2C(=O)[C@H](CC(=O)O)NC(=O)[C@H](Cc2ccc(O)cc2)NC(=O)CNC(=O)[C@H](Cc2c[nH]c3ccccc23)NC1=O [Example A44, TFA salt] (cyclo([Ahp(2)]WGYD[dP]KG[NMeAla(cPent)]Y))	9.27
CCCCC[C@@H]1NC(=O)[C@H](Cc2ccc(O)cc2)NC(=O)[C@H](Cc2ccccc2)N(C)C(=O)CNC(=O)CNC(=O)[C@H]2CCCN2C(=O)[C@H](CC(=O)O)NC(=O)[C@H](CCNC(=O)N2CCN(CC(=O)O)CC2)NC(=O)CNC(=O)[C@H](Cc2c[nH]c3ccccc23)NC1=O [Example A5] (cyclo([Ahp(2)]WG[Dab]([CO-Piperazinyl(4-CH2COOH)])D[dP]GG[NMeF]Y))	10.15
CCCCC[C@@H]1NC(=O)[C@H](Cc2ccc(OCCNC(=O)CN3CCN(CC(=O)O)CCN(CC(=O)O)CCN(CC(=O)O)CC3)cc2)NC(=O)[C@H](Cc2ccccc2)N(C)C(=O)CNC(=O)[C@H](CCO)NC(=O)[C@H]2CCCN2C(=O)[C@H](CC(=O)O)NC(=O)[C@H](Cc2ccc(O)cc2)NC(=O)CNC(=O)[C@H](Cc2c[nH]c3ccccc23)NC1=O [Example B26, TFA salt] (cyclo([hSer]G[NMeF][AEF](DOTA)[Ahp(2)]WGYD[dP]))	10.57
CCCCC[C@@H]1NC(=O)[C@H](Cc2ccc(O)cc2)NC(=O)[C@H](Cc2ccccc2)N(C)C(=O)CNC(=O)CNC(=O)[C@H]2CCCN2C(=O)[C@H](CC(=O)O)NC(=O)[C@H](CCCNC(=O)N2CCN(CC(=O)O)CC2)NC(=O)CNC(=O)[C@H](Cc2c[nH]c3ccccc23)NC1=O [Example A4, TFA salt] (cyclo([Ahp(2)]WG[Orn]([CO-Piperazinyl(4-CH2COOH)])D[dP]GG[NMeF]Y))	9.69
CCCCC[C@@H]1NC(=O)[C@H](Cc2ccc(O)cc2)NC(=O)[C@H](Cc2ccccc2)N(C)C(=O)CNC(=O)CNC(=O)[C@H]2CCCN2C(=O)[C@H](CC(=O)O)NC(=O)[C@H](Cc2ccc(O)cc2)NC(=O)CNC(=O)[C@H](Cc2c[nH]c3c(OC)cccc23)NC1=O [Example A61] (cyclo([Ahp(2)][Trp(7-OMe)]GYD[dP]GG[NMeF]Y))	10.19

In plain terms, CCCOCC[C@@H]1NC(=O)[C@H](Cc2ccc(CNC(=O)COCCOCCNC(=O)c3ccc(F)nc3)cc2)NC(=O)[C@H](Cc2ccccc2)N(C)C(=O)CNC(=O)CNC(=O)[C@H]2CCCN2C(=O)[C@H](CC(=O)O)NC(=O)[C@H](CCCCNC(=O)N2CCN(CC(=O)O)CC2)NC(=O)CNC(=O)[C@H](Cc2c[nH]c3ccccc23)NC1=O [Example C56] (cyclo(D[dP]GG[NMeF][Phe(4-CH2NH2)]([AEEA-Nicotinoyl(6-F)])[hSer](Propyl)WGK([CO-Piperazinyl(4-CH2COOH)]))) has a documented pIC50 of 11.05

get_value(item= CCCCC[C@@H]1NC(=O)[C@H](Cc2ccc(O)cc2)NC(=O)[C@H](Cc2ccccc2)NC(=O)[C@H](CCC(=O)O)NC(=O)[C@H](CCCCN)NC(=O)[C@H]2CCCN2C(=O)[C@H](CC(=O)O)NC(=O)[C@H](Cc2ccc(O)cc2)NC(=O)CNC(=O)[C@H](Cc2c[nH]c3ccccc23)NC1=O [Example A20] (cyclo([Ahp(2)]WGYD[dP]KEFY)) , readout=pIC50) returns 8.59

Please fill in: pIC50 reported for CCCCC[C@@H]1NC(=O)[C@H](Cc2ccc(O)cc2)NC(=O)[C@H](Cc2ccccc2)N(C)C(=O)CNC(=O)CN(C)C(=O)[C@H]2CCCN2C(=O)[C@H](CC(=O)O)NC(=O)[C@H](Cc2ccc(O)cc2)NC(=O)CNC(=O)[C@H](Cc2c[nH]c3ccccc23)NC1=O [Example A73] (cyclo([Ahp(2)]WGYD[dP][Sar]G[NMeF]Y)) = 10.55

pIC50 in this record for CCCCC[C@@H]1NC(=O)[C@H](Cc2ccc(CNC(=O)COCCOCCNC(=O)CN3CCN(CC(=O)O)CCN(CC(=O)O)CCN(CC(=O)O)CC3)cc2)NC(=O)[C@H](Cc2ccccc2)N(C)C(=O)CNC(=O)CNC(=O)[C@H]2CCCN2C(=O)[C@H](CC(=O)O)NC(=O)[C@H](Cc2ccc(O)cc2)NC(=O)CNC(=O)[C@H](Cc2c[nH]c3ccccc23)NC1=O [Example B16, TFA salt] (cyclo([Ahp(2)]WGYD[dP]GG[NMeF][Phe(4-CH2NH2)]([AEEA-DOTA]))) : 11.05
